B1: EEHEE_rd4_0647 (parent)
chain: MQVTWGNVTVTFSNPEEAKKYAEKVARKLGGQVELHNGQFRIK

variants of: B1; assay: folding stability dG (cDNA display proteolysis); higher = more stable; conditions: PBS, room temperature
Decision: folding stability dG compared against 2 kcal/mol; not below it gives met, below it gives not met.

A selection of reference data follows.
1. H36K
met
2. L35T
met
3. P15E
met

Q: Reported folding stability dG at or above 2 kcal/mol? "V10Y"
Ans: met

Q: Reported folding stability dG at or above 2 kcal/mol? "Q39S"
Ans: met

Q: Reported folding stability dG at or above 2 kcal/mol? "M1A"
Ans: met

Q: Reported folding stability dG at or above 2 kcal/mol? "N37R"
Ans: not met

Q: Reported folding stability dG at or above 2 kcal/mol? "S13I"
Ans: met

Q: Reported folding stability dG at or above 2 kcal/mol? "V10M"
Ans: met

Q: Reported folding stability dG at or above 2 kcal/mol? "K43L"
Ans: met

Q: Reported folding stability dG at or above 2 kcal/mol? "E34N"
Ans: not met

Q: Reported folding stability dG at or above 2 kcal/mol? "A18I"
Ans: not met

Q: Reported folding stability dG at or above 2 kcal/mol? "E34F"
Ans: met

Q: Reported folding stability dG at or above 2 kcal/mol? "V3W"
Ans: not met

Q: Reported folding stability dG at or above 2 kcal/mol? "G38D"
Ans: not met

Q: Reported folding stability dG at or above 2 kcal/mol? "F12I"
Ans: not met

Q: Reported folding stability dG at or above 2 kcal/mol? "T4D"
Ans: not met

Q: Reported folding stability dG at or above 2 kcal/mol? "H36A"
Ans: met

Q: Reported folding stability dG at or above 2 kcal/mol? "G31V"
Ans: met

Q: Reported folding stability dG at or above 2 kcal/mol? "W5P"
Ans: not met

Q: Reported folding stability dG at or above 2 kcal/mol? "T4S"
Ans: met

Q: Reported folding stability dG at or above 2 kcal/mol? "K20M"
Ans: met

Q: Reported folding stability dG at or above 2 kcal/mol? "A18K"
Ans: not met

Q: Reported folding stability dG at or above 2 kcal/mol? "G6D"
Ans: met

Q: Reported folding stability dG at or above 2 kcal/mol? "K20G"
Ans: met

Q: Reported folding stability dG at or above 2 kcal/mol? "Y21L"
Ans: not met

Q: Reported folding stability dG at or above 2 kcal/mol? "T4M"
Ans: met
